# assay_target: T1, extracellular domain of human BCMA (human, UniProt Q02223 1-54)
# T1 construct: amine-linked to Octet AR2G tips; also called hsBCMA; BCMA (human)
# T1 sequence: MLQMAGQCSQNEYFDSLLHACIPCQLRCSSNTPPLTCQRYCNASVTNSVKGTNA
# method_description: Octet BLI; Fab 200 nM
Exercise: state measured pKd for each of the binders provided.
The scale used: pKd is minus the common logarithm of the concentration in molar units.

Problem: Name the recorded pKd of the binder listed here: AB200-R1a-Fab_VH26 (Fab, V domains shown) VH: QVQLVQSGAEVKKPGSSVKVSCKASGGSFSNYWMHWVRQAPGQGLEWMGATYRIHSDTFYNQKFKGRVTITADKSTSTAYMELSSLRSEDTAVYYCARGAIYHGYDVLDNWGQGTLVTVSS VL: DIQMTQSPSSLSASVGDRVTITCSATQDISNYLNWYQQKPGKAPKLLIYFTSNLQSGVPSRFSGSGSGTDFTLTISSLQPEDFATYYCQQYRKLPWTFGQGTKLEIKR
Solution: 9.03

Problem: Name the recorded pKd of the binder listed here: AB200-R1a-Fab_VH19 (Fab, V domains shown) VH: QVQLVQSGAEVKKPGSSVKVSCKASGGSFSNYWMQWVRQAPGQGLEWMGATYRGHSDTYYNQKFKGRVTITADKSTSTAYMELSSLRSEDTAVYYCARGSIYHGYDVLDNWGQGTLVTVSS VL: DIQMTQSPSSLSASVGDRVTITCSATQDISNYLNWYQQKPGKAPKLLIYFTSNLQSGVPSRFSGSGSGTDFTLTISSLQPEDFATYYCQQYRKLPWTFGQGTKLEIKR
Solution: 7.73
